# EXPERIMENT_DESCRIPTION: plasma stability
# Type: in vitro ADME
# CONDITION_SET: rat plasma, 37° C., 15 min
TEST_READOUT: Plasma stability, remaining of the intact test compound (%)
Give just the numeric value; % need not be written.

Input: May I ask what Plasma stability, remaining of the intact test compound has been recorded for COc1cc(NC(=O)c2ccccn2)ccc1Cl [Compound 4] ?
Output: 94.45

Input: Entry COc1ccc([C@@H]2Sc3ccccc3N(CCN(C)C)C(=O)[C@@H]2OC(C)=O)cc1 [Diltiazem] : reported Plasma stability, remaining of the intact test compound = ?
Output: 87.33

Input: // lookup Plasma stability, remaining of the intact test compound for CSc1cc(NC(=O)c2ccccn2)ccc1Cl [Compound 13]
Output: 95.34

Input: Which Plasma stability, remaining of the intact test compound is listed for [2H]C([2H])(F)Sc1cc(NC(=O)c2ccccn2)ccc1Cl [Compound 15] ?
Output: 93.46

---

Quick reference for IC50 among some compounds
# TARGET_OF_ASSAY: UniProt Q14833
# Sequence (Q14833 33-912): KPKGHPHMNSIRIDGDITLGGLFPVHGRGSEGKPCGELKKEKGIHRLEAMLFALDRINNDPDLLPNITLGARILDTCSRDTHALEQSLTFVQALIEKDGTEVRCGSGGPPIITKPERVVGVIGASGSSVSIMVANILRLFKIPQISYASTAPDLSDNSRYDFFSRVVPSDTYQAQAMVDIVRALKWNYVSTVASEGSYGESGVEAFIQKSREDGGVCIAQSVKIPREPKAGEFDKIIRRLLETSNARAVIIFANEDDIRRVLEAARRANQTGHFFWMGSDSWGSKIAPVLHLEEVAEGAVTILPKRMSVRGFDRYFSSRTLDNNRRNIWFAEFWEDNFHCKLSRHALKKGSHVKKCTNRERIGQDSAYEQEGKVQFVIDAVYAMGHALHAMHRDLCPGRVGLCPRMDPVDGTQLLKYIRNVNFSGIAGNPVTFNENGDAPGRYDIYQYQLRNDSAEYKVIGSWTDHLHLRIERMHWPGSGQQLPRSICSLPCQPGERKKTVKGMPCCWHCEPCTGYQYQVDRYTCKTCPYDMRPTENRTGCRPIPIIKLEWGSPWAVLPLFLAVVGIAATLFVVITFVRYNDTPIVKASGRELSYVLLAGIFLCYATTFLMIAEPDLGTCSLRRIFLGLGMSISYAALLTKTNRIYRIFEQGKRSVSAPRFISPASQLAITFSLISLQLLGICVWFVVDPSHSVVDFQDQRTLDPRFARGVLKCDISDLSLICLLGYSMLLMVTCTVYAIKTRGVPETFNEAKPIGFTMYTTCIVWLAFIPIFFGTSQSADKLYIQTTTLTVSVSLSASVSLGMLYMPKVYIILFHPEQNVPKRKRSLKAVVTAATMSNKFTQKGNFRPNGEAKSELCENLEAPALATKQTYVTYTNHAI
# EXPERIMENT_DESCRIPTION: competitive binding (radioligand replacement) assay with [3H]4 in mGluR4 transfected CHO cells
# Parameters: expressed in transfected cells; host or cells: CHO cells
# CONDITION_SET: 2 nM [3H]4, read-out: IC50 (nM), affinity to mGluR4
Record the value in nM, omitting the unit from your answer.

# count of solved cases: 2
CHEMICAL_SMILES	TARGET_OF_ASSAY	IC50 (nM)
[2H]C([2H])(F)Sc1cc(NC(=O)c2ccccn2)ccc1Cl	UniProt Q14833	3.4
COc1cc(NC(=O)c2ccccn2)ccc1Cl	UniProt Q14833	5.1

Input: What value of IC50 has been reported for the following compound? `CSc1cc(NC(=O)c2ccccn2)ccc1Cl`
Output: 3.4

---

# EXPERIMENT_DESCRIPTION: solution stability
# Assay type: physicochemical
# CONDITION_SET: pH = 5.0, 37° C.
TEST_READOUT: The solution stability, The intact ± SEM at 120 min (%)
Just the number in %, nothing appended.

Consider the worked cases shown below.
CHEMICAL_SMILES	VALUE_REPORTED
CSc1cc(NC(=O)c2ccccn2)ccc1Cl	85.9
[2H]C([2H])(F)Sc1cc(NC(=O)c2ccccn2)ccc1Cl	87.1
COc1ccc([C@@H]2Sc3ccccc3N(CCN(C)C)C(=O)[C@@H]2OC(C)=O)cc1	94.7

Proceed to the following item.
Input: Consider the compound shown here: `COc1cc(NC(=O)c2ccccn2)ccc1Cl` What is its recorded The solution stability, The intact ± SEM at 120 min (%)?
Output: 92.7

---

# EXPERIMENT_DESCRIPTION: plasma stability
# Type: in vitro ADME
# CONDITION_SET: rat plasma, 120 min
TEST_READOUT: The plasma stability, The intact ± SEM at 120 min (%)
Numbers only here, please. The scale is %.

Here are 2 compounds together with their reported answers.
CHEMICAL_SMILES	VALUE_REPORTED
[2H]C([2H])(F)Sc1cc(NC(=O)c2ccccn2)ccc1Cl	84.5
CSc1cc(NC(=O)c2ccccn2)ccc1Cl	91.5

Input: Could you share which The plasma stability, The intact ± SEM at 120 min (%) value was measured for `COc1cc(NC(=O)c2ccccn2)ccc1Cl` ?
Output: 98.2

Input: What does the data say about its The plasma stability, The intact ± SEM at 120 min (%)? Entry: `COc1ccc([C@@H]2Sc3ccccc3N(CCN(C)C)C(=O)[C@@H]2OC(C)=O)cc1`
Output: 49.0
